- subject.of.test: ScNbp2
- method: SPOT peptide array binding signal intensity (averaged, normalized) (arbitrary units (background-subtracted, floor 0; scale differs between SH3 domains)); higher = stronger binding of the SH3 domain to the peptide
Quick rule for you: SPOT peptide array binding signal intensity at 70 or higher means criterion met, lower means criterion not met.

binder: AIPPPVPNRPGGTTN
label.value: criterion not met
--
binder: NENKKLPPAPTVFGL
label.value: criterion not met
--
binder: PELAPKREAPKPPAN
label.value: criterion met
--
binder: PVLPPPRSPNRPTLS
label.value: criterion not met
--
binder: VLRFLGFPLPIFEKG
label.value: criterion not met
--
binder: VRTRRRPPPPPIPST
label.value: criterion met
--
binder: NNFYRPLLRSVLVLL
label.value: criterion not met
--
binder: RSLRKRPTSPSISGS
label.value: criterion met
--
binder: NFKRLLPRDPSEKSS
label.value: criterion not met
--
binder: HGKRRAPLLLAKLDV
label.value: criterion met
--
binder: WTQRRGPLVVYAEDN
label.value: criterion not met
--
binder: ATNVPVAPPPPPASL
label.value: criterion not met
--
binder: KLSRGRYGLPLSSRP
label.value: criterion met
--
binder: TPEIPPPLPPKIMVH
label.value: criterion not met

# credit: the supplement of paper PMC4466140
